These entries and their values trace back to ChEMBL document CHEMBL1132240.

- Tested on: LoVo
- Method description: Cytotoxic activity against solid tumor, LoVo, (human colon adenocarcinoma) Concentration of agent required to reduce cell viability by 50%
- Type: functional, cell-based
Note to self: use True only for IC50 readings below 20 µM; a reading exactly at 20 µM still gets False.

Compound	Target system	Class
CCN(CC)CCn1c2cc(N3CCC(O)CC3)c(N)cc2c(=O)c2c(O)cc(O)cc21	LoVo	False

Exam item: hey, is IC50 for CCN(CC)CCNc1cc2c(cc1N)c(=O)c1c(O)cc(O)cc1n2CC lower than 20 µM or not?
Marked response: True

Exam item: hey, is IC50 for CCn1c2cc(Cl)c(N)cc2c(=O)c2c(O)cc(O)cc21 lower than 20 µM or not?
Marked response: True

Exam item: hey, is IC50 for CCn1c2cc(N3CCN(C)CC3)c(N)cc2c(=O)c2c(O)cc(O)cc21 lower than 20 µM or not?
Marked response: True

Exam item: hey, is IC50 for CCN(CC)CCn1c2cc(OC)c(N)cc2c(=O)c2c(O)cc(O)cc21 lower than 20 µM or not?
Marked response: True

Exam item: hey, is IC50 for CCN(CC)CCn1c2cc(Cl)c(N)cc2c(=O)c2c(O)cc(O)cc21 lower than 20 µM or not?
Marked response: True

Exam item: hey, is IC50 for CCN(CC)CCn1c2cc(NC)c(N)cc2c(=O)c2c(O)cc(O)cc21 lower than 20 µM or not?
Marked response: False

Exam item: hey, is IC50 for CCN(CC)CCn1c2cc(N3CCN(C)CC3)c(N)cc2c(=O)c2c(O)cc(O)cc21 lower than 20 µM or not?
Marked response: True

Exam item: hey, is IC50 for CCn1c2cc(N3CC(C)NC(C)C3)c(N)cc2c(=O)c2c(O)cc(O)cc21 (centres undefined) lower than 20 µM or not?
Marked response: False

* * *

- Organism: Homo sapiens
- Method description: Relative cytotoxicity against Human bone marrow samples; Value is in range, activity expressed as IC90
- Type: functional
Outcome measure: IC90 (µM)
Give your result in µM as a bare value.

Exam item: Param item = CCN(CC)CCn1c2cc(N3CCC(O)CC3)c(N)cc2c(=O)c2c(O)cc(O)cc21 ; retrieve measured IC90.
Marked response: 0.672

Exam item: Param item = CCN(CC)CCn1c2cc(Cl)c(N)cc2c(=O)c2c(O)cc(O)cc21 ; retrieve measured IC90.
Marked response: 6.46

Exam item: Param item = CCn1c2cc(Cl)c(N)cc2c(=O)c2c(O)cc(O)cc21 ; retrieve measured IC90.
Marked response: 74.1

Exam item: Param item = CCn1c2cc(N3CCN(C)CC3)c(N)cc2c(=O)c2c(O)cc(O)cc21 ; retrieve measured IC90.
Marked response: 20.3

Exam item: Param item = CCn1c2cc(N3CCC(O)CC3)c(N)cc2c(=O)c2c(O)cc(O)cc21 ; retrieve measured IC90.
Marked response: 15.9

* * *

- System: HL-60
- Method description: Cytotoxic activity against Human promyelocytic Leukemia HL-60 Concentration of agent required to reduce cell viability by 90%
- Format: functional
The molecules listed here are annotated with their IC90.
Give your result in µM as a bare value.

Sample records with IC90:
CCn1c2cc(N3CCC(O)CC3)c(N)cc2c(=O)c2c(O)cc(O)cc21 9.2
CCN(CC)CCn1c2cc(N3CCN(C)CC3)c(N)cc2c(=O)c2c(O)cc(O)cc21 19
CCN(CC)CCNc1cc2c(cc1N)c(=O)c1c(O)cc(O)cc1n2CC 46
CN1CCN(c2cc3c(cc2N)c(=O)c2c(O)cc(O)cc2n3C)CC1 39
CCN(CC)CCn1c2cc(NC)c(N)cc2c(=O)c2c(O)cc(O)cc21 27

Exam item: Param item = CCN(CC)CCn1c2cc(OC)c(N)cc2c(=O)c2c(O)cc(O)cc21 ; retrieve measured IC90.
Marked response: 27

* * *

The molecules listed here are annotated with their IC90.
- System: B16
- Method description: Cytotoxic activity against solid tumor, B16 (murine melanoma) Concentration of agent required to reduce cell viability by 90%
- Assay type: functional
- Settings: Mus musculus
Give your result in µM as a bare value.

Sample records with IC90:
Molecule	IC90, µM
CCn1c2cc(Cl)c(N)cc2c(=O)c2c(O)cc(O)cc21	28
CCn1c2cc(N3CCN(C)CC3)c(N)cc2c(=O)c2c(O)cc(O)cc21	19
CCN(CC)CCn1c2cc(NC)c(N)cc2c(=O)c2c(O)cc(O)cc21	24
CCn1c2cc(N3CCN(C)CC3)c(N)cc2c(=O)c2c(O)cc(OC)cc21	12
CCN(CC)CCn1c2cc(Cl)c(N)cc2c(=O)c2c(O)cc(O)cc21	5.9

Exam item: Param item = CCn1c2cc(N3CC(C)NC(C)C3)c(N)cc2c(=O)c2c(O)cc(O)cc21 (stereo not given) ; retrieve measured IC90.
Marked response: 32

Exam item: Param item = CCN(CC)CCn1c2cc(OC)c(N)cc2c(=O)c2c(O)cc(O)cc21 ; retrieve measured IC90.
Marked response: 11

Exam item: Param item = CCN(CC)CCn1c2cc(N3CCN(C)CC3)c(N)cc2c(=O)c2c(O)cc(O)cc21 ; retrieve measured IC90.
Marked response: 23

Exam item: Param item = CCN(CC)CCNc1cc2c(cc1N)c(=O)c1c(O)cc(O)cc1n2CC ; retrieve measured IC90.
Marked response: 38

* * *

- Test system: Lewis lung carcinoma cell line
- Method description: Cytotoxic activity against solid tumor LLC(Lewis lung carcinoma), concentration of agent required to reduce cell viability by 50%
- Type: functional, cell-based
- Settings: Mus musculus
Outcome measure: pIC50
Please treat pIC50 as minus the base-10 logarithm of the molar concentration.

Molecule	pIC50
CCn1c2cc(Cl)c(N)cc2c(=O)c2c(O)cc(O)cc21	4.80
CCN(CC)CCNc1cc2c(cc1N)c(=O)c1c(O)cc(O)cc1n2CC	4.60
CCN(CC)CCn1c2cc(N3CCN(C)CC3)c(N)cc2c(=O)c2c(O)cc(O)cc21	4.62
CCN(CC)CCn1c2cc(Cl)c(N)cc2c(=O)c2c(O)cc(OC)cc21	5.30
CCN(CC)CCn1c2cc(N3CCC(O)CC3)c(N)cc2c(=O)c2c(O)cc(O)cc21	5.06
COc1cc([C@@H]2c3cc4c(cc3[C@@H](O[C@@H]3O[C@@H]5CO[C@@H](C)O[C@H]5[C@H](O)[C@H]3O)[C@H]3COC(=O)[C@H]23)OCO4)cc(OC)c1O [ETOPOSIDE]	5.96

Attention now turns to another entry.
Exam item: Param item = CCN(CC)CCn1c2cc(Cl)c(N)cc2c(=O)c2c(O)cc(O)cc21 ; retrieve measured pIC50.
Marked response: 5.44

* * *

The molecules listed here are annotated with their log10(IC90).
- Tested on: CHO
- Method description: Cytotoxic activity against solid tumor, CHO (Chinese hamster ovaric carcinoma) Concentration of agent required to reduce cell viability by 90%
- Assay type: functional
- Settings: Cricetulus griseus
Hey, these are logged values: log10 of IC90, µM being the unit before logging.

Sample records with log10(IC90):
Molecule	log10(IC90)
CCn1c2cc(N3CCN(C)CC3)c(N)cc2c(=O)c2c(O)cc(O)cc21	1.28
CCn1c2cc(N3CCC(O)CC3)c(N)cc2c(=O)c2c(O)cc(O)cc21	1.58
CCN(CC)CCn1c2cc(Cl)c(N)cc2c(=O)c2c(O)cc(O)cc21	0.80
CCN(CC)CCn1c2cc(OC)c(N)cc2c(=O)c2c(O)cc(O)cc21	1.30
CCn1c2cc(Cl)c(N)cc2c(=O)c2c(O)cc(O)cc21	1.85

Exam item: Please provide the recorded log10(IC90) for CCN(CC)CCn1c2cc(N3CCN(C)CC3)c(N)cc2c(=O)c2c(O)cc(O)cc21 , tested on CHO.
Marked response: 1.20

Exam item: Please provide the recorded log10(IC90) for CCN(CC)CCn1c2cc(NC)c(N)cc2c(=O)c2c(O)cc(O)cc21 , tested on CHO.
Marked response: 1.56

Exam item: Please provide the recorded log10(IC90) for CCn1c2cc(N3CC(C)NC(C)C3)c(N)cc2c(=O)c2c(O)cc(O)cc21 (centres undefined) , tested on CHO.
Marked response: 1.58

Exam item: Please provide the recorded log10(IC90) for CCN(CC)CCNc1cc2c(cc1N)c(=O)c1c(O)cc(O)cc1n2CC , tested on CHO.
Marked response: 1.23

* * *

- Tested on: P388
- Method description: Cytotoxic activity against Murine Lymphocytic Leukemia P388 Concentration of agent required to reduce cell viability by 50%
- Assay type: functional, cell-based
- Settings: Mus musculus
Outcome measure: IC50 (µM)
Give your result in µM as a bare value.

CCn1c2cc(Cl)c(N)cc2c(=O)c2c(O)cc(O)cc21 1.6

Exam item: Param item = CCn1c2cc(N3CCC(O)CC3)c(N)cc2c(=O)c2c(O)cc(O)cc21 ; retrieve measured IC50.
Marked response: 3.4

Exam item: Param item = CCN(CC)CCn1c2cc(N3CCSCC3)c(N)cc2c(=O)c2c(O)cc(O)cc21 ; retrieve measured IC50.
Marked response: 8.8
